- Test system: T-47D breast
- procedure summary: NCI tumour cell line growth inhibition, 48 h
Each entry below lists one item and its recorded TGI value.
measurement kind: TGI (µM)

compound=COC(=O)c1ccc(/C=N/c2cc(C)nn2-c2ccccc2)cc1 qualifier== result_number=58
compound=O=c1c2ccccc2c(C=NCCNCCO)c2oc3ccccc3n12 qualifier== result_number=17.9
compound="CCCCC/C=C1\\CCC(CN2CCOCC2)C1=O (stereo not drawn)" qualifier== result_number=9.95
compound=CCCCn1c(=O)c(/C=C/C(=O)/C=C/c2ccc(O)c(OC)c2)cc2ccc(Cl)cc21 qualifier== result_number=6.28
compound="O=C(Nc1ccccc1)N1CC(CN2CCN(c3ccccc3)CC2)OC1=O (stereo not drawn)" qualifier=> result_number=100
compound=O=c1[nH]ncc2[nH]c3c(c12)CCCc1ccccc1-3 qualifier=> result_number=100
compound=O=C(/C=C/c1ccccc1)c1ccc(O)c(CN2CCN(c3cc4c(cc3F)c(=O)c(C(=O)O)cn4C3CC3)CC2)c1 qualifier=> result_number=100
compound=Cc1cc(C)c(S(=O)(=O)Oc2ccccc2[N+](=O)[O-])c(C)c1 qualifier=> result_number=100
compound=S=C1SC2(CCCCCC2)NC2=C1CCCCC2 qualifier=> result_number=100
compound=Oc1ccc2ccccc2c1N=Nc1ccc(N=Nc2ccccc2)cc1 qualifier=> result_number=100
compound=Cc1c2ccccc2nc2[nH]c3ccncc3c12 qualifier=> result_number=100
compound=COc1ccc(/C=C2/CCOC2=O)cc1 qualifier=> result_number=100
compound="Fc1ccc(C(OCCN2CC3CC2CN3CCCc2ccccc2)c2ccc(F)cc2)cc1 (stereo not drawn)" qualifier== result_number=7.21
compound=COc1cc(C)c(N(C)C(=O)CN(C)C)cc1Nc1nc(Nc2cccc(F)c2C(N)=O)c2cc[nH]c2n1 qualifier=> result_number=25
compound=CCCN(CCC)c1ccc(C=O)c(OC)c1 qualifier== result_number=57.5
compound=NC(=O)c1nnc2cc(F)c(F)cc2c1N qualifier=> result_number=100
compound=O=C1C=CC(=O)c2c(O)c(Nc3ccc(OC(F)(F)F)cc3)c(Cl)c(O)c21 qualifier== result_number=0.972
compound=CN(C)c1ncc(-c2c[nH]c3ccccc23)nc1-c1c[nH]c2ccccc12 qualifier== result_number=19.9
compound=Cc1cc2cc(Oc3ccnc(Nc4cccc(CS(=O)(=O)NCCN(C)C)c4)n3)ccc2[nH]1 qualifier== result_number=22.7
compound=O=C(C1=CCC2(CC1)OCCO2)N(Cc1ccccc1)c1ccccc1I qualifier== result_number=59.7
compound=CCN(CCc1ccc(F)cc1)c1ccc(CO)c(Cl)c1 qualifier== result_number=12.7
compound=COc1cccc(NC(=O)c2ccc(C(F)(F)F)nc2Nc2ccc(Cl)cc2C)c1 qualifier== result_number=25.1
compound=Cc1nnc2sc(-c3ccc(N)cc3)nn12 qualifier=> result_number=100

====

- System: SR leukemia
- procedure summary: NCI tumour cell line growth inhibition, 48 h; in the data active means GI50 below about 0.43 µM; inactive means the rest
Classes used: active, inactive

compound=C=C(C)[C@@H]1CC[C@]2(c3ncc(C)o3)CC[C@]3(C)[C@H](CC[C@@H]4[C@@](C)(CCC#N)[C@H](C(=C)C)CC[C@]43C)[C@@H]12 qualitative_label=inactive
compound=CC(C)(C)OC(=O)N(CCCn1c2c(c3ccccc3c1=O)C(=O)c1ccccc1-2)CCN(CCCn1c2c(c3ccccc3c1=O)C(=O)c1ccccc1-2)C(=O)OC(C)(C)C qualitative_label=inactive
compound=C[C@]1(O)CC(=O)[C@]2(O)C3=C(C=C[C@]2(O)C1)C(=O)c1c(O)cccc1C3=O qualitative_label=inactive
compound=CCN(CCc1ccc(F)cc1)c1ccc(CO)c(Cl)c1 qualitative_label=inactive
compound=Cc1cc2cc(Oc3ccnc(Nc4cccc(CS(=O)(=O)NCCN(C)C)c4)n3)ccc2[nH]1 qualitative_label=inactive
compound=CN1CCN(c2ccc(NC3=C(Cl)C(=O)c4ncccc4C3=O)cc2C(F)(F)F)CC1 qualitative_label=active
compound=C=C(C)[C@@H]1CC[C@]2(C)[C@H](CC=C3[C@@H]4CC(C)(C)CC[C@]4(C(=O)OC)CC[C@]32C)[C@@]1(C)CC/C(N)=N/O qualitative_label=inactive
compound=COc1cc2c(c(OC)c1OC)C(=O)c1c-2n(CCCN)c(=O)c2cc([N+](=O)[O-])ccc12 qualitative_label=inactive
compound=COc1ccc(S(=O)(=O)N2CCCCC2)cc1NC(=O)c1[nH]c(C)c2c1CCCCC2=O qualitative_label=inactive
compound=CCN(CC)CCNc1ccc(CO)c2sc3ccccc3c(=O)c12 qualitative_label=inactive
compound="COc1cccc2c1C(=O)c1c(O)c3c(c(O)c1C2=O)C[C@@](O)(C(=O)COC(=O)c1cccnc1)C[C@@H]3OC1CC(N)C(O)C(C)O1 (stereo partly specified)" qualitative_label=active

====

- Test system: TK-10 renal
- procedure summary: NCI tumour cell line growth inhibition, 48 h; in the data active = GI50 below about 0.43 µM; inactive = the rest
Classes used: active, inactive

compound=O=c1cc(-c2ccccc2)oc2cc(OCc3cn(Cc4ccc(F)cc4)nn3)cc(O)c12 qualitative_label=inactive
compound=CC(C)(C)OC(=O)N(CCCn1c2c(c3ccccc3c1=O)C(=O)c1ccccc1-2)CCN(CCCn1c2c(c3ccccc3c1=O)C(=O)c1ccccc1-2)C(=O)OC(C)(C)C qualitative_label=inactive
compound=CC(C)NCCCNC1=C(Cl)C(=O)c2ccccc2C1=O qualitative_label=inactive
compound=CCc1nc2cc(/C=C/C(=O)NO)c(F)cc2c(=O)n1CCc1ccccc1 qualitative_label=inactive
compound=COc1cc(C)c(N(C)C(=O)CN(C)C)cc1Nc1nc(Nc2cccc(F)c2C(N)=O)c2cc[nH]c2n1 qualitative_label=inactive
compound=COc1ccc(OC)c(-c2cn3nc(-c4c[nH]c5ccc(Br)cc45)sc3n2)c1 qualitative_label=inactive
compound=CCN(CCc1ccc(F)cc1)c1ccc(CO)c(Cl)c1 qualitative_label=active
compound="Cc1ccc(NCCN(C)CC(C)O)c2c(=O)c3ccc(Cl)cc3sc12 (stereo not drawn)" qualitative_label=inactive
compound="COc1cc(C(C)c2cc3c(cc2OCCOCCOc2cc4c(cc2C(C)c2cc(OC)c(OC)c(OC)c2)OCO4)OCO3)cc(OC)c1OC (stereo not drawn)" qualitative_label=inactive
compound=CCC(=O)[O-].CCC(=O)[O-].N.N.N.N.[Co+3].[O-][Cl+3]([O-])([O-])[O-] qualitative_label=inactive
compound=COc1cc2c(c(OC)c1OC)C(=O)c1c-2n(CCCN)c(=O)c2cc([N+](=O)[O-])ccc12 qualitative_label=inactive
compound=O=C(/C=C/c1ccccc1)c1ccc(O)c(CN2CCN(c3cc4c(cc3F)c(=O)c(C(=O)O)cn4C3CC3)CC2)c1 qualitative_label=inactive
compound=CO/N=C(\COc1ccc2c(=O)cc(-c3ccccc3)oc2c1)c1ccc(OC)cc1 qualitative_label=inactive
compound=CCCCCCCCCCCCCCCC[N+](C)(C)C qualitative_label=inactive
compound=CN([N-]C(=O)CC(=O)[N-]N(C)C(=S)c1ccccc1)C(=S)c1ccccc1.[Cu+2] qualitative_label=active
compound="COc1cccc2c1C(=O)c1c(O)c3c(c(O)c1C2=O)C[C@@](O)(C(=O)COC(=O)c1cccnc1)C[C@@H]3OC1CC(N)C(O)C(C)O1 (stereo partly drawn)" qualitative_label=active
compound=CC(C)(C)c1cc2c(OP(c3ccccc3)c3ccccc3)c(c1)Cc1cc(C(C)(C)C)cc(c1OP(c1ccccc1)c1ccccc1)Cc1cc(C(C)(C)C)cc(c1OP(c1ccccc1)c1ccccc1)Cc1cc(C(C)(C)C)cc(c1OP(c1ccccc1)c1ccccc1)C2 qualitative_label=inactive
compound=COc1ccc(CNCCCN2C(=O)c3ccc4c5c(ccc(c35)C2=O)C(=O)N(CCCNCCCCNCCCN)C4=O)c(OC)c1OC qualitative_label=inactive

====

- System: MCF7 breast
- procedure summary: NCI tumour cell line growth inhibition, 48 h
measurement kind: TGI

compound=Cc1nc(SCC(=O)Nc2ccccc2)c2sc(=S)n(-c3ccccc3)c2n1 result="> 10 µM"
compound=Cn1cc(C=C(C#N)C#N)c(=O)n(C)c1=O result="> 100 µM"
compound=Cn1c(-c2c(N)n(Cc3ccc(Cl)cc3)c3nc(C#N)c(C#N)nc23)nc2ccccc21 result="> 50 µM"
compound=N[C@H]1CCc2c1nc1c(c2-c2ccccc2)CC[C@@H]1N result="64.3 µM"
compound=Cc1ccc2nc(NC(=O)CSC(=S)N3CCN(Cc4ccccc4)CC3)sc2c1 result="> 100 µM"
compound="O=C1CC(CC(O)C(O)CO)CC(=O)N1 (stereo unspecified)" result="> 100 µM"
compound=CC(C)(C)c1ccc(NC(=O)c2cc(=O)c3ccccc3[nH]2)c(C(C)(C)C)c1O result="12.9 µM"
compound=c1csc(-c2cc(-c3ccsc3)c(-c3cccs3)s2)c1 result="89.8 µM"
compound="COC(=O)c1ccccc1C1CN=NC12Cc1c(C)c3c(c(C)c1C2=O)CCC3 (stereo unspecified)" result="> 100 µM"
compound="O=C(Nc1ccccc1)N1CC(CN2CCN(c3ccccc3)CC2)OC1=O (stereo unspecified)" result="> 100 µM"
compound=Nc1nonc1-c1noc(-c2nonc2N)[n+]1[O-] result="> 100 µM"
